Reference for the values: patent US20190038704A1

Item-by-item account of pIC50
# assay.system: T1, mouse EphA4 ectodomain fused to Fc (mouse, UniProt Q03137 20-547)
# T1 construct: extracellular domain; Defined as 'EphA4 Fc; also called EphA4 Fc; not shown: Fc portion
# T1 sequence (Q03137 20-547): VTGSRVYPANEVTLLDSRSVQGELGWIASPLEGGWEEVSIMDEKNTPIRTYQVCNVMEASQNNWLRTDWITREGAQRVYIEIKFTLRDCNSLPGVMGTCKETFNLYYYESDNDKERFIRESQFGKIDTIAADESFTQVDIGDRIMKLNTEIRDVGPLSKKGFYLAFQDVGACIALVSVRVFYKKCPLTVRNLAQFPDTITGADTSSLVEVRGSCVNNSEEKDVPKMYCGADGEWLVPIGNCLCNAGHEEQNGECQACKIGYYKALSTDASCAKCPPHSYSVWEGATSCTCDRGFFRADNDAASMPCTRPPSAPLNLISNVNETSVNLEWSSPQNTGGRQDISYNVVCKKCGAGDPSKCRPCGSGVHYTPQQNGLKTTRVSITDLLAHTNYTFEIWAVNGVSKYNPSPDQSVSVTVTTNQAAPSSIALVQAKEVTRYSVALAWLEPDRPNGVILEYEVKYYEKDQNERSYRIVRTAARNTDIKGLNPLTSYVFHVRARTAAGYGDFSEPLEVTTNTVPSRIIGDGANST
# method: competition ELISA: ephrin-A5 AP binding to immobilized EphA4 Fc
Bridge positions count the residues as written; N and C are the ends. Square brackets hold non-standard residues; d marks the D form. Ends that are not written are not given here. βAla = NCCC(=O)O
Please report pIC50 as the negative decimal logarithm of the molar concentration, giving only the number.

Please review the following examples before continuing.
# binder, pIC50
measured = [
    ("APYCVYRXSWSC (D-Ala at position 8; C-terminal amide; disulfide bridge Cys4-Cys12) [APY-DAla8.am]", 6.55),
    ("Ac-KYCVYR[βAla]SWSC-NH2 (disulfide 3-11 (inferred), numbers may be shifted) [ac.KY-βAla8.am]", 5.94),
]

What does the data say about its pIC50? Entry: XPYCVYRGSWSC (βAla at position 1; C-terminal amide; disulfide bridge Cys4-Cys12) [βAla1-PY.am]
6.17

Report pIC50 for KYCVYR[βAla]SWSC-NH2 (disulfide 3-11 (inferred), numbers may be shifted) [KY-βAla8.am] please.
6.59

# pIC50 lookup, item APYCVYK[βAla]SWSC-NH2 (disulfide 4-12 (inferred), also called APYCVYKβASWSC-am) [APY-Lys7-βAla8.am]
7.17

Would you mind telling me what pIC50 value was observed for APYCVYRXSWSC (aminoisobutyric acid (Aib) at position 8; C-terminal amide; disulfide bridge Cys4-Cys12) [APY-Aib8.am] ?
5.59

Would you kindly share the measured pIC50 for XPYCVYRGSWSC (D-Ala at position 1; C-terminal amide; disulfide bridge Cys4-Cys12) [DAla1-PY.am] ?
5.96

Could you share which pIC50 value was measured for APYCVYRGSWSC-NH2 (disulfide 4-12, C-terminally amidated APY) [APY.am] ?
6.55

Find the recorded pIC50 belonging to YCVYR[βAla]SWSC-NH2 (disulfide 2-10 (inferred), numbers may be shifted) [Y-βAla8.am] and report it.
5.83
